- Experimental target: C-X-C chemokine receptor type 2 (Homo sapiens)
- Sequence (P25025 whole entry): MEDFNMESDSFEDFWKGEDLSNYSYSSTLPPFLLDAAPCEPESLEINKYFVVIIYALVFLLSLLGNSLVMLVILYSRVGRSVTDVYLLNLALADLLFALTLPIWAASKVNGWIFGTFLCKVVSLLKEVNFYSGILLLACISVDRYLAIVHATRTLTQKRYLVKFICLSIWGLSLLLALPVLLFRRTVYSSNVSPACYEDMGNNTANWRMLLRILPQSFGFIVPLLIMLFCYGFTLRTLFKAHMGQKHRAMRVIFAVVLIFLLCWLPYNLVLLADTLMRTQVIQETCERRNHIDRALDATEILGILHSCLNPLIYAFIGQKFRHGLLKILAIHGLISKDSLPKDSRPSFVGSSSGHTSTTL
- Assay: Antagonist activity at TEV protease cleavage site linked GAL4-VP16-fused recombinant human CXCR2 expressed in cells assessed as inhibition of […] human CXCL1-stimulated beta-arrestin recruitment by CCF4-AM-fluorescence based FRET assay
- Assay type: cell-based
- Experimental context: read-out: pIC50 (converted)
Experimental endpoint: IC50 (nM)

(1) CC1=CCC[C@H]1NC(=O)Nc1ccc(Cl)c(S(=O)(=O)C2CC3(COC3)C2)c1O
(2) COC1CCCCC1NC(=O)Nc1ccc(Cl)c(S(=O)(=O)C(C)C)c1O (racemic)
(3) CC1=CCC[C@H]1NC(=O)Nc1ccc(Cl)c(S(=O)(=O)C2(CCF)CCOCC2)c1O
(4) CC1=CCC[C@H]1NC(=O)Nc1ccc(Cl)c(S(=O)(=O)C2CCN(CC(F)(F)F)CC2)c1O
(5) CC(C)S(=O)(=O)c1c(Cl)ccc(NC(=O)NC2CCCC2)c1O
input: # rank above entries by IC50 (max first, min last) Please express your ranking as an ordered list of the labels.
output: 2, 4, 3, 5, 1
(2: 1580 nM, 4: 316 nM, 3: 31.6 nM, 5: 10 nM, 1: 1 nM)

----------
- Assay: Fraction unbound in Han-Wistar SOA rat model blood at 2 mg/kg administered via oral gavage by UPLC/MS/MS analysis
- Type: ADME, organism-based
Experimental endpoint: fraction unbound

(1) CC1=CCC[C@H]1NC(=O)Nc1ccc(Cl)c(S(=O)(=O)[C@H]2C[C@H](N(C)C)C2)c1O
(2) CC1=CCC[C@H]1NC(=O)Nc1ccc(C#N)c(S(=O)(=O)C(C)(C)C)c1O
(3) CC1=CCC[C@H]1NC(=O)Nc1ccc(Cl)c(S(=O)(=O)C(C)(C)C(F)(F)F)c1O
input: # rank above entries by fraction unbound (max first, min last) Please express your ranking as an ordered list of the labels.
output: 1, 2, 3

----------
- Assay: Efflux ratio of passive permeability in MDCK2-MDR1 cells transduced with BacMam2-BCRP at 3 uM after 90 mins by Transwell assay
- Type: ADME, cell-based, Canis lupus familiaris, MDCK-MDR1
- Experimental context: dog
Experimental endpoint: efflux ratio at 1.5 h, 3 µM

(a) CC1=CCC[C@H]1NC(=O)Nc1ccc(Cl)c(S(=O)(=O)C2(CCF)CCOCC2)c1O
(b) CC1=CCC[C@H]1NC(=O)Nc1ccc(Cl)c(S(=O)(=O)C(C)(C)C2CCOCC2)c1O
input: I'm curious whether a or b has the smaller efflux ratio at 1.5 h, 3 µM number. Which is it? Label of pick, please.
output: b

(a) CC1=CCC[C@H]1NC(=O)Nc1ccc(Cl)c(S(=O)(=O)C2CCN(CC(F)F)CC2)c1O
(b) CC1=CCC[C@H]1NC(=O)Nc1ccc(Cl)c(S(=O)(=O)C2(C)CCCOC2)c1O (stereo not given in full)
(c) CC1=CCC[C@H]1NC(=O)Nc1ccc(Cl)c(S(=O)(=O)C(C)(C)[C@H]2CCOC2)c1O
input: Ranking field: efflux ratio at 1.5 h, 3 µM; order: falling. Please express your ranking as an ordered list of the labels.
output: a, b, c
(a: 9.4, b: 3.4, c: 2.2)

Data origin: ChEMBL document CHEMBL4033786
